Test: Plasma pharmacokinetics of vincristine in mice
Conditions: mouse, in vivo, 1 mg/kg, Plasma concentration of Vincristine (ng/mL), OATP1A/1B(-/-) mice, 2 h
Description: were collected at the final time point. […] specimens were stored at -80°C until further processing. […] stainless steel bead (Qiagen) and processed for 4 min at 40 Hz. […] Pharmacokinetic parameters were calculated by non -compartmental analysis using Phoenix WinNonlin version 8.0 (Certara). Peak plasma concentration (C max) was determined by visual inspection of the data from the concentration-time curves. […] quantification was 5 ng/mL. […]
Attribute Measured: concentration at 2 h (ng/mL)
Provide the reading as a plain figure in ng/mL.

Task: Give the measured concentration at 2 h for CC[C@]1(O)C[C@H]2CN(CCc3c([nH]c4ccccc34)[C@@](C(=O)OC)(c3cc4c(cc3OC)N(C=O)[C@H]3[C@@](O)(C(=O)OC)[C@H](OC(C)=O)[C@]5(CC)C=CCN6CC[C@]43[C@@H]65)C2)C1
Result: 89.9

Taken from paper PMC10443802.
